Every entry's value here was drawn from paper PMC8015787.

Biological target: 1-deoxy-D-xylulose 5-phosphate synthase (DXPS) (Escherichia coli)
Sequence (P77488 2-620): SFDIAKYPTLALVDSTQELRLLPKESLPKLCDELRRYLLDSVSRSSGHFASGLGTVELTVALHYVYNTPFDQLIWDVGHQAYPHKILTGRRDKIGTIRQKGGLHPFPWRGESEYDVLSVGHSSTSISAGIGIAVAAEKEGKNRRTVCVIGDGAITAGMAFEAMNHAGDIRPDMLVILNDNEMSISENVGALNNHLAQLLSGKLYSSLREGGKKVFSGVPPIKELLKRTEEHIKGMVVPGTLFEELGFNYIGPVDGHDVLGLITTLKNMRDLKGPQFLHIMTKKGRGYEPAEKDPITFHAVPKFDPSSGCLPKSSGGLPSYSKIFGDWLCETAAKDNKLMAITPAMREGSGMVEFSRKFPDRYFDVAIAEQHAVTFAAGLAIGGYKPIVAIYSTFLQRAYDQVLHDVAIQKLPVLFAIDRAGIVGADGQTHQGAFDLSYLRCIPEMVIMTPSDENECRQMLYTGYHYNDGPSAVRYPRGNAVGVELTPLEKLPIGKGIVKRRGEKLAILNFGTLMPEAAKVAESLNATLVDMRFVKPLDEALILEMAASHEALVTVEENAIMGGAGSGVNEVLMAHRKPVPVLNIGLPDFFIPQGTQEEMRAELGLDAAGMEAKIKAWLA
measuredEndpoint: pKd
# pKd = -log10(concentration in molar units)

Exercise: Return reported pKd for target or system 1-deoxy-D-xylulose 5-phosphate synthase (DXPS) (Escherichia coli), item CCC(=O)C(=O)O [compound 2, ketobutyrate] .
Solution: 4.80
